These entries and their values trace back to the array DNA melting data of Ke et al. (doi:10.1101/2024.01.08.574731).

Readings of folding enthalpy for the listed sequences
test: folding enthalpy; higher = less favourable; fluorescence melt of hairpins on a sequencing array, two-state fit; conditions: sodium 0.088 M

>  <orderedResidues>
GTCACAGGAAACTGCGAC (((.(((....))).)))

>  <folding enthalpy>
-28.8 kcal/mol

$$$$
>  <orderedResidues>
GGATAGCGAAAGCTTTCC (((.(((....))).)))

>  <folding enthalpy>
-29.7 kcal/mol

$$$$
>  <orderedResidues>
GTTGTAGGAAACCACAAC (((((.(....).)))))

>  <folding enthalpy>
-32.5 kcal/mol

$$$$
>  <orderedResidues>
GATCCGGCAGCGGATC ((((((....))))))

>  <folding enthalpy>
-37.8 kcal/mol

$$$$

So what does the record say about folding enthalpy for GTGGTCGAAAGACAACAC ((((((....)))..))) ?
-18.7 kcal/mol

What value of folding enthalpy has been reported for the following sequence? GACCTGACGAAAGTCGTC (((..(((....))))))
-9.44 kcal/mol

Which folding enthalpy is reported for this sequence? GCCAACGAAAGTTATGGC ((((((....)))..)))
-30.7 kcal/mol

Requested read-out: folding enthalpy. Entry: GGCCACGAAAGTGAGGCC ((((((....)))..)))
-26.9 kcal/mol

Could you share which folding enthalpy value was measured for AGTATGAAAATACT (((((....))))) ?
-15.2 kcal/mol

Record request: folding enthalpy value, item GCGGTGCCCCGC ((((....))))
-18.8 kcal/mol

Consider the sequence GTGGATCGAAAGATCAC (((.(((....)))))) and give its measured folding enthalpy.
-13.3 kcal/mol

Bench note: what folding enthalpy did GATCAAAGAATTGATC ((((((....)))))) show?
-21.8 kcal/mol

For GCAAGCGAAAGCTCCTGC ((((((....)))..))) , what is its reported folding enthalpy?
-10.1 kcal/mol

Name the recorded folding enthalpy for GTTGGAGGAAACTCCAAC (((((((....))))))) .
-36 kcal/mol

Sample GACTCAGAAATGAGTC ((((((....)))))) — what was its folding enthalpy?
-35.9 kcal/mol

Using the record for GTCGCCGAAAGGCAAGAC ((((((....)))..))) , report its folding enthalpy.
-15.4 kcal/mol

So what's the measured folding enthalpy for this one? GGAAGCGAAAGCTTATCC ((((((....)))..)))
-9.74 kcal/mol

# get_value(readout='folding enthalpy', item= GATCGAGAGGTCGATC ((((((....)))))) )
-19 kcal/mol

Recorded folding enthalpy for GGAAGCGAAAGCTGTCC ((((((....))).))) , please?
-14.5 kcal/mol

Value lookup for folding enthalpy; key = CAGCAGAAATGCTG (((((....)))))
-25.6 kcal/mol

What does the data say about its folding enthalpy? Entry: GCGGTAGACCGC ((((....))))
-25.7 kcal/mol

Tell me the measured folding enthalpy of GCTTGCGGAAACGTAAGC ((((.((....)).)))) , please.
-35.1 kcal/mol

---

assay: melting temperature; fluorescence melt of hairpins on a sequencing array, two-state fit, raised by 9.35 °C to match UV melts; conditions: sodium 0.088 M
Outcome: true for Tm of at least 50 °C; false for anything lower.

Record excerpt, results attached:
>  <orderedResidues>
CGTACGGAAACGTACACG ((((((....)))..)))

>  <className>
false

$$$$
>  <orderedResidues>
GGGGAAGGAAACTTCCCC (((((((....)))))))

>  <className>
true

$$$$
>  <orderedResidues>
GTGCACACGAAAGTGCAC (((..(((....))))))

>  <className>
true

$$$$
>  <orderedResidues>
GAATCCGAAAGGATGTTC ((((((....)))..)))

>  <className>
false

$$$$
>  <orderedResidues>
GGAGTTCGAAAGAAGTCC (((.(((....))).)))

>  <className>
true

$$$$
>  <orderedResidues>
GATCGGGGAGCCGATC ((((((....))))))

>  <className>
true

$$$$
>  <orderedResidues>
GCGGTTACCGC ((((...))))

>  <className>
true

$$$$
>  <orderedResidues>
GCACGAGAAATCGTGC ((((((....))))))

>  <className>
true

$$$$
>  <orderedResidues>
GCTTAGCGAAAGCTCCGC ((..(((....)))..))

>  <className>
false

$$$$

From here, focus on the item given below.
Can GGCCCTGGAAACAGGGTC (.(((((....))))).) be said to have Tm at or above 50 °C?
true

---

assay: melting temperature; fluorescence melt of hairpins on a sequencing array, two-state fit, raised by 9.35 °C to match UV melts; conditions: sodium 0.088 M
Values of Tm greater than or equal to 50 °C map to Condition met; values below map to Condition not met.

Study these solved cases before continuing.
>  <orderedResidues>
GCATCGCGAAAGCGGAGC ((..(((....)))..))

>  <className>
Condition met

$$$$
>  <orderedResidues>
GTGCTAGGAAACTAGTGC (..((((....))))..)

>  <className>
Condition not met

$$$$
>  <orderedResidues>
GCAAGCCGAAAGGCCTGC (((.(((....))).)))

>  <className>
Condition met

$$$$
>  <orderedResidues>
GGAGGCGAAAGCCGTTCC ((((((....)))..)))

>  <className>
Condition not met

$$$$
>  <orderedResidues>
CGCAGGCGGAAACGCGCG (((..(((....))))))

>  <className>
Condition met

$$$$

Tm >= 50 °C for GTGGTCGGAAACGGCTAC ((.(.((....)).).)) ?
Condition not met

Kindly determine if Tm recorded for GAGTTTGCGAAAGCACTC (((..(((....)))))) is above or exactly 50 °C.
Condition not met

For this sequence, is measured Tm 50 °C or higher? GTATGCGAAAGCACATAC ((((((....)))..)))
Condition not met

For this sequence, is measured Tm 50 °C or higher? GGGCTACGAAAGTATCCC (((.(((....))).)))
Condition not met

hey, is Tm for this one >= 50 °C? GATCTGCGCGCAGATC ((((((....))))))
Condition met

Please check the record GCTAAGCGAAAGCTAGGC ((..(((....)))..)) and state if its Tm is at or above 50 °C.
Condition not met

---

We begin with a simple list: items and their reported Tm.
assay: melting temperature; fluorescence melt of hairpins on a sequencing array, two-state fit, raised by 9.35 °C to match UV melts; details: sodium 0.088 M
Respond numerically; units are °C and should not be typed.

Some solved entries appear below for comparison.
>  <orderedResidues>
GATATGCGAAAGCAGATC (((.(((....))).)))

>  <Tm / °C>
53.3

$$$$
>  <orderedResidues>
GGGAGTGGAAACACTCTC (.(((((....))))).)

>  <Tm / °C>
51.7

$$$$
>  <orderedResidues>
GATCTGTGCCAGATC ((((((...))))))

>  <Tm / °C>
51.1

$$$$
>  <orderedResidues>
GATCAGTATGCTGATC ((((((....))))))

>  <Tm / °C>
55.2

$$$$
>  <orderedResidues>
GAGGTGGGAAACCACCCC (.(((((....))))).)

>  <Tm / °C>
44.6

$$$$
>  <orderedResidues>
GTCCCCGAAAGGGGCGAC ((((((....)))..)))

>  <Tm / °C>
65.8

$$$$

Entry under review: GACGCAGGAAACTACGTC ((((.((....)).)))) . Reported Tm?
43.5

Which value of Tm has been reported for GTGCAATCGAAAGATCAC (((..(((....)))))) in the records?
30

Name the reported Tm value associated with the sequence GATCTATTTCTAGATC ((((((....))))))
38.9

---

experiment: folding enthalpy; higher = less favourable; fluorescence melt of hairpins on a sequencing array, two-state fit; conditions: sodium 0.088 M
I would appreciate it if you labelled entries Satisfied when folding enthalpy is -30 kcal/mol or higher, otherwise Not satisfied.

Example entries begin here.
>  <orderedResidues>
GGGTTGGGAAACCAACCC (((((((....)))))))

>  <className>
Not satisfied

$$$$
>  <orderedResidues>
GCTAGGGGAAACCTTAGC ((((.((....)).))))

>  <className>
Not satisfied

$$$$
>  <orderedResidues>
GGCTATACGAAAGTAGCC (((..(((....))))))

>  <className>
Not satisfied

$$$$
>  <orderedResidues>
GATCTCCTAGAGATC ((((((...))))))

>  <className>
Not satisfied

$$$$
>  <orderedResidues>
GATCCATCGTGGATC ((((((...))))))

>  <className>
Not satisfied

$$$$
>  <orderedResidues>
GGGAGTGGAAACACTCTC (.(((((....))))).)

>  <className>
Satisfied

$$$$
>  <orderedResidues>
GGTGGCGAAAGCCTTACC ((((((....)))..)))

>  <className>
Satisfied

$$$$
>  <orderedResidues>
GTAGAGTCGAAAGACTAC (((..(((....))))))

>  <className>
Satisfied

$$$$

Decide: folding enthalpy of GCATGGCGAAAGCTCTGC (((..((....))..))) >= -30 kcal/mol?
Satisfied

Determine whether this sequence has folding enthalpy no lower than -30 kcal/mol: GGTACATCGAAAGATACC (((..(((....))))))
Satisfied

Could you tell me if the measured folding enthalpy of GCCGCCGAAAGGCTTGGC ((((((....)))..))) reaches -30 kcal/mol or more?
Satisfied

Hi team, for GATCTCCCTGAGATC ((((((...)))))) , is the recorded folding enthalpy at or above -30 kcal/mol?
Not satisfied

Kindly determine if folding enthalpy recorded for GAATGCGGAAACGCACTC ((.((((....)))).)) is above or exactly -30 kcal/mol.
Satisfied

Reported folding enthalpy reaches at least -30 kcal/mol for GCATCGCGAAAGCGCCGC ((..(((....)))..)) ?
Satisfied

Determine whether this sequence has folding enthalpy no lower than -30 kcal/mol: GCAACAGGAAACTGTTGC (((((((....)))))))
Not satisfied

Is the recorded value of folding enthalpy equal to or greater than -30 kcal/mol for this sequence? GTGCAACCGAAAGGTCAC (((..(((....))))))
Satisfied

Is folding enthalpy for GATCCGCGTACGGATC ((((((....)))))) at or above -30 kcal/mol?
Not satisfied

Has GATCAGCTGCCTGATC ((((((....)))))) a recorded folding enthalpy greater than or equal to -30 kcal/mol?
Satisfied

Can GGCTGAGGAAACTCGGTC (.(.(((....))).).) be said to have folding enthalpy at or above -30 kcal/mol?
Satisfied

Hello, I need to know if GATCCTTTAGAGGATC ((((((....)))))) has measured folding enthalpy not below -30 kcal/mol. Thanks!
Not satisfied

Quick check: does GATCTCAGTGAGATC ((((((...)))))) have folding enthalpy greater than or equal to -30 kcal/mol?
Not satisfied

Kindly determine if folding enthalpy recorded for GTGCGCGAAAGCGCTCAC ((((((....)))..))) is above or exactly -30 kcal/mol.
Satisfied

Please indicate if the recorded folding enthalpy for GATCCACAGTTGGATC ((((((....)))))) meets or exceeds -30 kcal/mol.
Not satisfied

Please check the record GACGAAGCGAAAGCTGTC (((..(((....)))))) and state if its folding enthalpy is at or above -30 kcal/mol.
Satisfied
